- Tested on: Fibrinogen (Alexa647-labelled)
- Assay Details: Alexa647-fibrinogen binding to printed small molecules – biochemical, small-molecule microarray, 635/667 nm fluorescence, artefact control for SMM control-protein annotation, profiling panel (AID 1131);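 note: z-score merges 667 nm fluorescence with per-spot signal-to-noise over triplicate slides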
- Assay Setup: fibrinogen-A647 binding fluorescence, higher = more signal
Endpoint Label: composite z-score

Ask | Could you tell me which composite z-score is on file for `CCOC(=O)C[C@H]1[C@H](OC(=O)c2ccccc2-c2ccccc2)[C@@H](NC(=O)c2ccc3ccccc3n2)c2cc(OCCCO)ccc2N1C(=O)Cc1ccc(OC)cc1` ?
Reply | 0.47

Ask | Could you tell me which composite z-score is on file for `CCCN1C(=O)[C@@]2(Cc3ccccc31)N=C(c1ccc(OCCCO)cc1)O[C@H]2c1ccccc1` ?
Reply | 0.829

Ask | Quick one: composite z-score of `C=C(COC)/C(=C/C[C@H](OC(=O)c1ccncc1)c1ccccc1OCCO)c1cc(C(=O)OC)ccc1OC` ?
Reply | 0.148

Ask | Can you share its composite z-score? I mean this molecule: `CCCC[C@@H](O)C1=C(COC)C[C@H]2C(=O)N(C)C(=O)[C@H]2[C@H]1CO`
Reply | 0.171

Ask | Quick one: composite z-score of CC1CC/C=C\[C@H]2OC34C=CCN(C(C)C)C(=O)[C@H]3N(CCO)C(=O)[C@@H]4C2C(=O)O1 (stereo partly drawn) ?
Reply | -1.41

Ask | Look up composite z-score: `CCOC(=O)C[C@H]1[C@H](OC(=O)c2ccccc2-c2ccccc2)[C@@H](NC(=O)c2ccc3ccccc3c2)c2cc(OCCCO)ccc2N1C(=O)c1ccccc1`
Reply | 0.609

Ask | Look up composite z-score: CC(C)N1CC=CC23O[C@@H]4C=CCCOC(=O)C4[C@H]2C(=O)N(CCCO)[C@@H]3C1=O (stereo partly drawn)
Reply | -1.09

Ask | What value of composite z-score has been reported for the following molecule? `Oc1ccc2cc[n+](Cc3cc4c(cc3Br)OCO4)cc2c1`
Reply | -1.38

Recorded values, source PubChem BioAssay.
